Reported IC50 values for the following compounds.
# Experimental system: PIK3CD (Human) (UniProt O00329)
# Sequence (O00329 whole entry, looked up): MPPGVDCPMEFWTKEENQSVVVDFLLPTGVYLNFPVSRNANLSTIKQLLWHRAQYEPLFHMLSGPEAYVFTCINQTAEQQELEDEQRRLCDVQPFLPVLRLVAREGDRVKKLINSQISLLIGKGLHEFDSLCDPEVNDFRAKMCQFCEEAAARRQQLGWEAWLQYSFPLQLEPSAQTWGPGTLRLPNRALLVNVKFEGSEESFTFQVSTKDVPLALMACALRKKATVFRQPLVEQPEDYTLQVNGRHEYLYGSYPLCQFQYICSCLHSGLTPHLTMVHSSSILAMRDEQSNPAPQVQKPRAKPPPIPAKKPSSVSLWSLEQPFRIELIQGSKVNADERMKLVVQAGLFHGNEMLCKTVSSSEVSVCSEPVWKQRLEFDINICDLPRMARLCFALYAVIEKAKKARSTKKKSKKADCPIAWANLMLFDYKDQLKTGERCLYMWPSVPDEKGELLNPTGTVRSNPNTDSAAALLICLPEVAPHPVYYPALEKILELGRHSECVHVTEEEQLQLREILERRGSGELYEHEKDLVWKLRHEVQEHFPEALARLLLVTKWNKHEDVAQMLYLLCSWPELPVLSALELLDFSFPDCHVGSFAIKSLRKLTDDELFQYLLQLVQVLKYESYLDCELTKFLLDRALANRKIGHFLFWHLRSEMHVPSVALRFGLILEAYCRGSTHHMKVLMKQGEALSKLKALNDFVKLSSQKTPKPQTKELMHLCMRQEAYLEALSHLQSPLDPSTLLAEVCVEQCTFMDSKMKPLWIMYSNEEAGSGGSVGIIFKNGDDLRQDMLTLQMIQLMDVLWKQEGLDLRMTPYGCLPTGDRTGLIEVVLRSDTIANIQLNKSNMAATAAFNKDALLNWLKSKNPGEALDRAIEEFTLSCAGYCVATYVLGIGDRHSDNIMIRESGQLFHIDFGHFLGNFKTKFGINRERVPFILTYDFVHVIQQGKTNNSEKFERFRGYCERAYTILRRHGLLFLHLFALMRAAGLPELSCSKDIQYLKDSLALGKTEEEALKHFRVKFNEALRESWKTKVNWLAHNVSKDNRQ
# Protocol text: Enzyme Assay

Some solved entries appear below for comparison.
C[C@H](NC(=O)c1c(N)nn2cccnc12)c1cc2cccc(C#CC3CC3)c2c(=O)n1C1CC1 | 1 to 5 µM
COc1ccc(C#Cc2cccc3cc([C@H](C)NC(=O)c4c(N)nn5cccnc45)n(-c4ccccc4)c(=O)c23)cn1 | 5 to 10 µM
C[C@H](NC(=O)c1c(N)nn2cccnc12)c1cc2cccc(C#Cc3cocn3)c2c(=O)n1-c1ccccc1 | 1 to 5 µM
C[C@H](NC(=O)c1c(N)nn2cccnc12)c1cc2cccc(C#CC(C)(C)O)c2c(=O)n1-c1ccccc1 | 5 to 10 µM
C[C@H](NC(=O)c1c(N)nn2cccnc12)c1cc2cccc(C=Cc3ccccc3)c2c(=O)n1-c1ccccc1 | 5 to 10 µM

Query: Query IC50 for "C[C@H](NC(=O)c1c(N)nn2cccnc12)c1cc2cccc(C#Cc3cnn(C)c3)c2c(=O)n1CCS(=O)(=O)N(C)C"
Result: 5 to 10 µM

Query: Query IC50 for "C[C@H](NC(=O)c1c(N)nn2cccnc12)c1cc2cccc(C#Cc3cncn3C)c2c(=O)n1-c1ccccc1"
Result: 5 to 10 µM

Query: Query IC50 for "C[C@H](NC(=O)c1c(N)nn2cccnc12)c1cc2cccc(C#Cc3ccnn3C)c2c(=O)n1-c1ccccc1"
Result: 5 to 10 µM

Query: Query IC50 for "C[C@H](NC(=O)c1c(N)nn2cccnc12)c1cc2cccc(C#Cc3cccnc3)c2c(=O)n1-c1ccccc1"
Result: 5 to 10 µM

Query: Query IC50 for "C#Cc1cccc2nc([C@H](C)NC(=O)c3c(N)nn4cccnc34)n(-c3ccc(F)cc3)c(=O)c12"
Result: 1 to 5 µM

Query: Query IC50 for "Cc1nn(C)c(C)c1C#Cc1cccc2cc([C@H](C)NC(=O)c3c(N)nn4cccnc34)n(-c3ccccc3)c(=O)c12"
Result: 5 to 10 µM

---

The following compounds each carry a recorded pIC50 for PIK3CG (human).
pIC50: −log10 of the molar value.

C[C@H](NC(=O)c1c(N)nn2cccnc12)c1cc2cccc(CC(=O)c3cn[nH]c3)c2c(=O)n1-c1ccccc1 | 6.00 to 6.30
Cc1ncc(C#Cc2cccc3cc([C@H](C)NC(=O)c4c(N)nn5cccnc45)n(-c4ccccc4)c(=O)c23)s1 | 6.30 to 7.00

Query: State recorded pIC50 with PIK3CG (human), entry "C[C@H](NC(=O)c1c(N)nn2cccnc12)c1cc2cccc(C#CC3CC3)c2c(=O)n1C1CC1" , no comment.
Result: 5.30 to 6.00

Query: State recorded pIC50 with PIK3CG (human), entry "CCOC(C#Cc1cccc2cc([C@H](C)NC(=O)c3c(N)nn4cccnc34)n(-c3ccccc3)c(=O)c12)OCC" , no comment.
Result: 6.00 to 6.30

Query: State recorded pIC50 with PIK3CG (human), entry "C[C@H](NC(=O)c1c(N)nn2cccnc12)c1cc2cccc(C#Cc3nccs3)c2c(=O)n1-c1ccccc1" , no comment.
Result: 6.30 to 7.00

---

The following compounds each carry a recorded IC50 for PIK3CG (human).

Some solved entries appear below for comparison.
C[C@H](NC(=O)c1c(N)nn2cccnc12)c1cc2cccc(C#CC(C)(C)N)c2c(=O)n1-c1ccccc1 | 500 to 1000 nM
C#Cc1cccc2nc([C@H](C)NC(=O)c3nccnc3N)n(-c3ccc(F)cc3)c(=O)c12 | 1 to 100 nM
C[C@H](NC(=O)c1c(N)nn2cccnc12)c1cc2cccc(C#Cc3cscn3)c2c(=O)n1-c1ccccc1 | 1 to 100 nM

Below: the item to evaluate.
Query: State recorded IC50 with PIK3CG (human), entry "C[C@H](NC(=O)c1c(N)nn2cccnc12)c1cc2cccc(C#CC3CCN(S(C)(=O)=O)CC3)c2c(=O)n1-c1ccccc1" , no comment.
Result: 500 to 1000 nM

---

The following molecules each carry a recorded IC50 for PIK3CB (Human) (UniProt P42338).

C[C@H](NC(=O)c1c(N)nn2cccnc12)c1cc2cccc(C#CCO)c2c(=O)n1-c1ccccc1 | 1 to 5 µM
COc1cnc(C(=O)N[C@@H](C)c2cc3cccc(C#Cc4cnn(C)c4)c3c(=O)n2-c2ccccc2)c(N)n1 | 5 to 10 µM
C[C@H](NC(=O)c1c(N)nn2cccnc12)c1cc2cccc(C#CC3CCN(C)CC3)c2c(=O)n1-c1ccccc1 | 5 to 10 µM
COc1cc(C#Cc2cccc3cc([C@H](C)NC(=O)c4c(N)nn5cccnc45)n(-c4ccccc4)c(=O)c23)ccn1 | 5 to 10 µM
C[C@H](NC(=O)c1c(N)nn2cccnc12)c1cc2cccc(C#CC=O)c2c(=O)n1-c1ccccc1 | 0.001 to 0.5 µM

Query: Query IC50 for "C[C@H](NC(=O)c1c(N)nn2cccnc12)c1cc2cccc(C#CC(C)(C)N)c2c(=O)n1-c1ccccc1"
Result: 5 to 10 µM

Query: Query IC50 for "CC(C)n1c([C@H](C)NC(=O)c2c(N)nn3cccnc23)cc2cccc(C#Cc3cnn(C)c3)c2c1=O"
Result: 5 to 10 µM

Query: Query IC50 for "C[C@H](NC(=O)c1c(N)nn2cccnc12)c1cc2cccc(C#Cc3cncn3C)c2c(=O)n1C1CC1"
Result: 1 to 5 µM

Query: Query IC50 for "Cc1csc(C#Cc2cccc3cc([C@H](C)NC(=O)c4c(N)nn5cccnc45)n(-c4ccccc4)c(=O)c23)n1"
Result: 5 to 10 µM

---

# Experimental system: UniProtKB O00329
# Protocol text: Cell-Based Assay
# Experimental parameters: raji
Property name: IC50

Query: Query IC50 for "C/C=C/c1cccc2cc([C@H](C)NC(=O)c3c(N)nn4cccnc34)n(-c3ccccc3)c(=O)c12"
Result: 1 to 100 nM

Query: Query IC50 for "C[C@H](NC(=O)c1c(N)nn2cccnc12)c1cc2cccc(C#CC3CCCC3)c2c(=O)n1-c1ccccc1"
Result: 1000 to 10000 nM

Query: Query IC50 for "C[C@H](NC(=O)c1c(N)nn2cccnc12)c1cc2cccc(C#Cc3cn[nH]c3)c2c(=O)n1-c1ccccc1"
Result: 100 to 500 nM

Query: Query IC50 for "Cc1nc(C#Cc2cccc3nc([C@H](C)NC(=O)c4c(N)nn5cccnc45)n(-c4ccccc4)c(=O)c23)cs1"
Result: 500 to 1000 nM

Query: Query IC50 for "C[C@H](NC(=O)c1c(N)nn2cccnc12)c1cc2cccc(C#Cc3nccs3)c2c(=O)n1-c1ccccc1"
Result: 100 to 500 nM

Query: Query IC50 for "C[C@H](NC(=O)c1c(N)nn2cccnc12)c1cc2cccc(C#CCN3CCN(C)CC3)c2c(=O)n1-c1ccccc1"
Result: 100 to 500 nM

---

Reported pIC50 values for the following molecules.
# Experimental system: UniProt:O00329
# Protocol text: Cell-Based Assay
# Experimental parameters: raji
pIC50: −log10 of the molar value.

Cc1nn(C)cc1C#Cc1cccc2cc([C@H](C)NC(=O)c3c(N)nn4cccnc34)n(-c3ccccc3)c(=O)c12 | 6.00 to 6.30
C[C@H](NC(=O)c1c(N)nn2cccnc12)c1cc2cccc(C#CC(C)(C)C)c2c(=O)n1-c1ccccc1 | 5.00 to 6.00
Cc1nc(C)c(C#Cc2cccc3cc([C@H](C)NC(=O)c4c(N)nn5cccnc45)n(-c4ccccc4)c(=O)c23)s1 | 5.00 to 6.00

Query: Query pIC50 for "C[C@H](NC(=O)c1c(N)nn2cccnc12)c1cc2cccc(C#Cc3ccn[nH]3)c2c(=O)n1-c1ccccc1"
Result: 6.30 to 7.00

---

The following compounds each carry a recorded IC50 for PIK3CG (human).

Some solved entries appear below for comparison.
C[C@H](NC(=O)c1c(N)nn2cccnc12)c1cc2cccc(C#Cc3ccncc3)c2c(=O)n1-c1ccccc1 | 100 to 500 nM
C[C@H](NC(=O)c1c(N)nn2cccnc12)c1cc2cccc(C#CCN(C)C)c2c(=O)n1-c1ccccc1 | 500 to 1000 nM
C[C@H](NC(=O)c1c(N)nn2cccnc12)c1cc2cccc(C#Cc3cncn3C)c2c(=O)n1C1CC1 | 1000 to 5000 nM

Below: the item to evaluate.
Query: Query IC50 for COC(C)C#Cc1cccc2cc([C@H](C)NC(=O)c3c(N)nn4cccnc34)n(-c3ccccc3)c(=O)c12 (some centres undefined)
Result: 100 to 500 nM

---

The following compounds each carry a recorded IC50 for PIK3CB (Human).

Some solved entries appear below for comparison.
CC[C@H](NC(=O)c1c(N)nn2cccnc12)c1cc2cccc(C#Cc3cnn(C)c3)c2c(=O)n1-c1ccccc1 | 5 to 10 µM
C[C@H](NC(=O)c1c(N)nn2cccnc12)c1cc2cccc(C#Cc3cc[nH]c(=O)c3)c2c(=O)n1-c1ccccc1 | 5 to 10 µM
C[C@H](NC(=O)c1c(N)nn2cccnc12)c1cc2cccc(C#CCN3CCOCC3)c2c(=O)n1-c1ccccc1 | 5 to 10 µM
C[C@H](NC(=O)c1c(N)nn2cccnc12)c1cc2cccc(C#Cc3ccn[nH]3)c2c(=O)n1-c1ccccc1 | 5 to 10 µM
Cc1nn(C)c(C)c1C#Cc1cccc2cc([C@H](C)NC(=O)c3c(N)nn4cccnc34)n(-c3ccccc3)c(=O)c12 | 5 to 10 µM

Below: the item to evaluate.
Query: State recorded IC50 with PIK3CB (Human), entry "C[C@H](NC(=O)c1c(N)nn2cccnc12)c1cc2cccc(C#CC(F)(F)F)c2c(=O)n1-c1ccccc1" , no comment.
Result: 5 to 10 µM
